Details: 313.15 K; 101.33 kPa; Liquid; Vibrating tube method
mass density values by entry
READOUT: mass density (kg/m3)

>>> df
                                   molecule  numeric_value
0  CCCCC(CC)CCC(=O)[O-].CCCCCCCC[N+](C)(CCCCCCCC)CCCCCCCC [methyltrioctylammonium 4-ethyloctanoate]            881
1  CCCCCCCC/C=C\CCCCCCCC(=O)[O-].CCCCCCCC[N+](C)(CCCCCCCC)CCCCCCCC [methyltrioctylammonium oleate]          878.5
2  CCCCCCCC/C=C\CCCCCCCC(=O)[O-].CCCCCCCC[N+](CCCCCCCC)(CCCCCCCC)CCCCCCCC [tetraoctylammonium oleate]          866.1
3  CCCCCCCC/C=C\CCCCCCCC(=O)[O-].CCCCCC[N+](CCCCCC)(CCCCCC)CCCCCC [tetrahexylammonium oleate]          877.8

---

Settings: 363.15 K; 101.33 kPa; Liquid; Vibrating tube method
READOUT: mass density (kg/m3)

>>> print(df.to_string())
                                   compound  numeric_value
0  CCCCCCCC/C=C\CCCCCCCC(=O)[O-].CCCCCC[N+](CCCCCC)(CCCCCC)CCCCCC [tetrahexylammonium oleate]          847.9
1  CCCCCCCC/C=C\CCCCCCCC(=O)[O-].CCCCCCCC[N+](C)(CCCCCCCC)CCCCCCCC [methyltrioctylammonium oleate]          849.1
2  CCCCCCCC/C=C\CCCCCCCC(=O)[O-].CCCCCCCC[N+](CCCCCCCC)(CCCCCCCC)CCCCCCCC [tetraoctylammonium oleate]          836.1
3  CCCCC(CC)CCC(=O)[O-].CCCCCCCC[N+](C)(CCCCCCCC)CCCCCCCC [methyltrioctylammonium 4-ethyloctanoate]          850.9

---

viscosity values by entry
Details: 318.15 K; 101.33 kPa; Liquid; Concentric cylinders viscometry
READOUT: viscosity (mPa·s)

>>> df
                                   compound  numeric_value
0  CCCCCCCC/C=C\CCCCCCCC(=O)[O-].CCCCCCCC[N+](C)(CCCCCCCC)CCCCCCCC [methyltrioctylammonium oleate]          511.3
1  CCCCC(CC)CCC(=O)[O-].CCCCCCCC[N+](C)(CCCCCCCC)CCCCCCCC [methyltrioctylammonium 4-ethyloctanoate]          820.4
2  CCCCCCCC/C=C\CCCCCCCC(=O)[O-].CCCCCC[N+](CCCCCC)(CCCCCC)CCCCCC [tetrahexylammonium oleate]          384.9
3  CCCCCCCC/C=C\CCCCCCCC(=O)[O-].CCCCCCCC[N+](CCCCCCCC)(CCCCCCCC)CCCCCCCC [tetraoctylammonium oleate]          314.4

---

Conditions: 298.15 K; 101.33 kPa; Liquid; Concentric cylinders viscometry
± gives the expanded uncertainty stated by the source.
READOUT: viscosity

                                   compound              result
0  CCCCC(CC)CCC(=O)[O-].CCCCCCCC[N+](C)(CCCCCCCC)CCCCCCCC [methyltrioctylammonium 4-ethyloctanoate]  3733.4 ± 510 mPa·s
1  CCCCCCCC/C=C\CCCCCCCC(=O)[O-].CCCCCC[N+](CCCCCC)(CCCCCC)CCCCCC [tetrahexylammonium oleate]  1623.7 ± 120 mPa·s
2  CCCCCCCC/C=C\CCCCCCCC(=O)[O-].CCCCCCCC[N+](CCCCCCCC)(CCCCCCCC)CCCCCCCC [tetraoctylammonium oleate]   1153.4 ± 86 mPa·s
3  CCCCCCCC/C=C\CCCCCCCC(=O)[O-].CCCCCCCC[N+](C)(CCCCCCCC)CCCCCCCC [methyltrioctylammonium oleate]  1971.4 ± 150 mPa·s

---

Settings: 353.15 K; 101.33 kPa; Liquid; Vibrating tube method
Numbers after ± are expanded uncertainties.
mass density values by entry
READOUT: mass density

>>> df
                                   compound       readout             result
0  CCCCCCCC/C=C\CCCCCCCC(=O)[O-].CCCCCCCC[N+](CCCCCCCC)(CCCCCCCC)CCCCCCCC [tetraoctylammonium oleate]  mass density  842.2 ± 7.1 kg/m3
1  CCCCC(CC)CCC(=O)[O-].CCCCCCCC[N+](C)(CCCCCCCC)CCCCCCCC [methyltrioctylammonium 4-ethyloctanoate]  mass density   856.8 ± 17 kg/m3
2  CCCCCCCC/C=C\CCCCCCCC(=O)[O-].CCCCCCCC[N+](C)(CCCCCCCC)CCCCCCCC [methyltrioctylammonium oleate]  mass density  854.9 ± 7.2 kg/m3
3  CCCCCCCC/C=C\CCCCCCCC(=O)[O-].CCCCCC[N+](CCCCCC)(CCCCCC)CCCCCC [tetrahexylammonium oleate]  mass density    854 ± 5.3 kg/m3

---

viscosity values by entry
Details: 363.15 K; 101.33 kPa; Liquid; Concentric cylinders viscometry
READOUT: viscosity (mPa·s)

>>> df
                                   molecule    readout  numeric_value
0  CCCCCCCC/C=C\CCCCCCCC(=O)[O-].CCCCCCCC[N+](C)(CCCCCCCC)CCCCCCCC [methyltrioctylammonium oleate]  viscosity           61.8
1  CCCCCCCC/C=C\CCCCCCCC(=O)[O-].CCCCCCCC[N+](CCCCCCCC)(CCCCCCCC)CCCCCCCC [tetraoctylammonium oleate]  viscosity           44.3
2  CCCCC(CC)CCC(=O)[O-].CCCCCCCC[N+](C)(CCCCCCCC)CCCCCCCC [methyltrioctylammonium 4-ethyloctanoate]  viscosity           74.1
3  CCCCCCCC/C=C\CCCCCCCC(=O)[O-].CCCCCC[N+](CCCCCC)(CCCCCC)CCCCCC [tetrahexylammonium oleate]  viscosity           45.5

---

Settings: 313.15 K; 101.33 kPa; Liquid; Concentric cylinders viscometry
± gives the expanded uncertainty stated by the source.
viscosity values by entry
READOUT: viscosity

                                   compound              result
0  CCCCCCCC/C=C\CCCCCCCC(=O)[O-].CCCCCCCC[N+](C)(CCCCCCCC)CCCCCCCC [methyltrioctylammonium oleate]    692.7 ± 49 mPa·s
1  CCCCCCCC/C=C\CCCCCCCC(=O)[O-].CCCCCC[N+](CCCCCC)(CCCCCC)CCCCCC [tetrahexylammonium oleate]    530.9 ± 36 mPa·s
2  CCCCCCCC/C=C\CCCCCCCC(=O)[O-].CCCCCCCC[N+](CCCCCCCC)(CCCCCCCC)CCCCCCCC [tetraoctylammonium oleate]    420.8 ± 29 mPa·s
3  CCCCC(CC)CCC(=O)[O-].CCCCCCCC[N+](C)(CCCCCCCC)CCCCCCCC [methyltrioctylammonium 4-ethyloctanoate]  1159.3 ± 150 mPa·s

---

Settings: 333.15 K; 101.33 kPa; Liquid; Vibrating tube method
READOUT: mass density (kg/m3)

>>> print(df.to_string())
                                   molecule  numeric_value
0  CCCCC(CC)CCC(=O)[O-].CCCCCCCC[N+](C)(CCCCCCCC)CCCCCCCC [methyltrioctylammonium 4-ethyloctanoate]          868.8
1  CCCCCCCC/C=C\CCCCCCCC(=O)[O-].CCCCCC[N+](CCCCCC)(CCCCCC)CCCCCC [tetrahexylammonium oleate]          865.8
2  CCCCCCCC/C=C\CCCCCCCC(=O)[O-].CCCCCCCC[N+](C)(CCCCCCCC)CCCCCCCC [methyltrioctylammonium oleate]          866.6
3  CCCCCCCC/C=C\CCCCCCCC(=O)[O-].CCCCCCCC[N+](CCCCCCCC)(CCCCCCCC)CCCCCCCC [tetraoctylammonium oleate]          854.1

---

Settings: 308.15 K; 101.33 kPa; Liquid; Vibrating tube method
mass density values by entry
READOUT: mass density (kg/m3)

In [3]: df
Out[3]:
                                   compound       readout  measure_unit  numeric_value
0  CCCCCCCC/C=C\CCCCCCCC(=O)[O-].CCCCCCCC[N+](CCCCCCCC)(CCCCCCCC)CCCCCCCC [tetraoctylammonium oleate]  mass density         kg/m3          869.2
1  CCCCCCCC/C=C\CCCCCCCC(=O)[O-].CCCCCC[N+](CCCCCC)(CCCCCC)CCCCCC [tetrahexylammonium oleate]  mass density         kg/m3          880.9
2  CCCCC(CC)CCC(=O)[O-].CCCCCCCC[N+](C)(CCCCCCCC)CCCCCCCC [methyltrioctylammonium 4-ethyloctanoate]  mass density         kg/m3            884
3  CCCCCCCC/C=C\CCCCCCCC(=O)[O-].CCCCCCCC[N+](C)(CCCCCCCC)CCCCCCCC [methyltrioctylammonium oleate]  mass density         kg/m3          881.5
